# credit: the supplement of paper PMC6555819

Test system: FXR:RXRa (NR concentration 270 nM, RXRa partner concentration 90 nM)
Assay: PBM binding z-score (relative to random genomic background probes); higher = stronger binding; sequences stand for … in GC…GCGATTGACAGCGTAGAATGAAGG
Reported PBM binding z-score values for the following sequences.
MEASURE: PBM binding z-score

SEQUENCE_INPUT	MEASURE	NUMERIC_VALUE
CCTACTGGGCCAAGAAAGGTCATTGATTCAGTGA	PBM binding z-score	3.31
CCTTACGGGTAACTGACAGGTTATAGCATTTGGA	PBM binding z-score	0.183
CGAACTAGGTCATCCAGGAAAGTGAATACATTGA	PBM binding z-score	4.43
AATACAGGGTCATCGTAGGCCAGCGTACGCACAG	PBM binding z-score	7.47
ACTAGCAGGCTAAGGGTCACTCAAGATTAGTCCG	PBM binding z-score	2.37
ACTATTAGTTGACATAGGGCAACCGATACGACGC	PBM binding z-score	0.176
ATCTCTAGGTAAGAGTTCAGTGAATCCCGAGGAT	PBM binding z-score	0.291
CCTACTGGGCCACGAAAGGTCTTTGATTCAGTGA	PBM binding z-score	0.186
TAGCCTGGGTCATTCAGGGGCCAGTATAGAAAGC	PBM binding z-score	3.88
CCGACTGGGGCATAGGGTTACCATAAGCCAGCCC	PBM binding z-score	0.216
CCTATTAGTTGACCATAAGGGCAACCGTAGCTCG	PBM binding z-score	0.644
CCTACTGGACCAAAAAGGTCATTGATGCCGATAA	PBM binding z-score	3.74

----------
System: PXR:RXRa (NR concentration 270 nM, RXRa partner concentration 90 nM)
Test: PBM binding z-score (relative to random genomic background probes); higher = stronger binding; sequences stand for … in GC…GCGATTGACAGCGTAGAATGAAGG
List of PBM binding z-score values.

SEQUENCE_INPUT	PBM binding z-score
ATCGAAAGGTCGACGAGGTCAGTATACACCGTTT	5.77
TGTCAAAGTTCAAAGGTAAGGTAAGTATCCACAC	5.8
TTGCCTAGGTCATGGGCCAGTATACCACGCGAAC	1.95
TAACCAAGGTGAAGGTCGTTGATCCCTCTGTAGA	1.48
TCATATAGGTAAACAGGTGAACGTCCGTAAGTTA	1.09
TGTAGTTGGTCAAAGGTCACACACTCGAAATGCG	6.06

----------
Tested on: RARg homodimer (NR concentration 270 nM)
Test: PBM binding z-score (relative to random genomic background probes); higher = stronger binding; sequences stand for … in GC…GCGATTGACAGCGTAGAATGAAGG
# PBM binding z-score annotations
MEASURE: PBM binding z-score

SEQUENCE_INPUT	NUMERIC_VALUE
GATACAGGGTCAGCTAGATGCCAGAGTATGGAAA	4.12
TGAATGAGGTTATAAGATCAGGGGACGTTGCAAA	0.975
CGTCCAAGGTCAGCTGGTCAGTGAAAGCGACGTG	6.1
GCTGCTAGGTCAACTCATGGTCAGCTAAAGCTCG	5.42
ATCTGTAGGTAAAAGTTCAGTGAATCCCGAGGAT	1.84
ATACCAAGGAGATCGTGAGGTCGTTGATACTAAC	0.458
TCATATAGGGAAACAGGTGAAAGTCCGTAAGTTA	0.215
TCTGCTAGGTCAAAGATGGTCAGCTAATCTGCTA	4.3
ACTAGCAGGACAAGGGTCACTCAAGATTAGTCCG	3.61
CCTACTGGGCCAAAAAGGGCATTGATGCCGATAA	0.776
TCTATTAGTGGATTAGGGCAACCGAAACAGCGGA	0.643
CAAACTAGGTTACCGGAAGGTCAAAGTCCGCATG	4.19
TGTCGGAGGACACGAAAGGTCAGAGCTCGACATC	5.76
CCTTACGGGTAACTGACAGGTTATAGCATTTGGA	0.501
TTAACAAGGTGAGCTGAGGTCGTTGATCCAACTC	1.09
TATTGTAGATCAATAGAGGTTAAGAAAGTGCGCT	0.855
GCGACTGGGGCAAAGCAGCTTACCATAAGGTTGG	0.112
TCAGACAGGTGACGGTAACTCAGGTACGCAGTCG	0.328
GGAACGTGGGCATTCGAGTTGATAGCATGGCGAT	-0.321
AGACCGAGGGCACGCTGAGTTGATAGCAGAGTAG	2.06
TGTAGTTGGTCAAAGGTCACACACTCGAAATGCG	6.06
CCGACTGGGGCAGAAAGGTTACTATACCATCCGG	1.23
CCTAGCAGGCCAACCTGGGTCACTCAAGGCTTGA	2.02
ACTAGCAGGCCAAGTTTGGGTCATTCAAACAAAG	1.29
ACAGACAGGTGAGTGAAGCTAACTCAGCTGGACG	0.288
ATCTCTAGGTAAAAGTTCAGCGAATCCCGAGGAT	3.02
